Test system: LOX IMVI melanoma
Measurement Description: NCI-60 one-dose screen, 48 h (100 = growth as untreated, 0 = no growth, -100 = all killed)
Particulars: 10 µM unless noted
The panel holds about 83,000 compounds, 20% with a hit somewhere; the sample as a whole holds those more often.
Let's look at some compounds and their measured growth.

Given Smiles | growth / %
O=C(/C=C/c1c(-c2ccccc2)[nH]c2ccccc12)S(=O)(=O)c1ccccc1 | 56.5
NS(=O)(=O)c1cc2c(cc1Cl)NC=NS2(=O)=O | 99.6
CN(C)CCC(=O)Nc1ccc(-n2cc(-c3cccc(NC(=S)Nc4cccc(-c5cn(-c6ccc(NC(=O)CCN(C)C)cc6)nn5)c4)c3)nn2)cc1 | 19.3
O=[N+]([O-])c1cc([N+](=O)[O-])c(N2CCCC2)cc1NN=C(c1ccc(O)cc1)c1ccc(O)cc1 | 41.6
O=c1sc2ncnc3ncn1c32 | 12.7
COP(=O)(OC)C(c1ccc(O)cc1)(c1ccc(O)cc1)c1ccc(O)cc1 | 103
CCCCCCCSc1ncnc2[nH]ncc12 | 65.9
C[C@H](C(=O)N[C@@H](Cc1ccc(-c2ccccc2)cc1)C(=O)NC1CC(C)(C)N(C)C(C)(C)C1)c1ccc(-c2ccccc2)c(F)c1 | -83.8
CC(C)Cn1cnc2c(NCn3nc(-c4cc(Cl)cc(Cl)c4Cl)n(/N=C/c4ccc(Cl)cc4)c3=S)nc3ccccc3c21 | 74.4

###

Tested on: HCT-15 colon
Measurement Description: NCI-60 one-dose screen, 48 h
Particulars: 10 µM unless noted
This is part of a sample that, as a whole, favours compounds with a hit. Of some 83,000 tested, about 20% had one in any assay. Calls of active or inactive are those of the source. The calls were made as follows: active = growth percent below 10; inactive = the rest.
Outcomes: 1 (yes) (active), 0 (no) (inactive)

Given Smiles | Label Value
Cc1cc2c(cc1C)[n+](Cc1ccc3ccccc3n1)cn2Cc1ccc2ccccc2n1 | 0 (no)
C[C@@H]1C[C@@H]([C@@H](CC2CC(=O)NC(=O)C2)OC(=O)CC(=O)c2ccccc2)C(=O)[C@@H](C)C1 | 1 (yes)
COC(=O)[C@H](Cc1cn(C)cn1)NC(=O)[C@H](Cc1ccccc1)NC(=O)Nc1cc(C(F)(F)F)cc(C(F)(F)F)c1 | 1 (yes)
C(=C1c2ccccc2-c2ccccc21)c1ccccn1 | 0 (no)
CCCCCCCCCCOC(C)=O | 0 (no)
CCOC(CNCc1cc(C)c2[nH]c3ccccc3c2c1C)OCC | 0 (no)

###

Tested on: HOP-62 NSCLC
Measurement Description: NCI-60 one-dose screen, 48 h (100 = growth as untreated, 0 = no growth, -100 = all killed)
Particulars: 10 µM unless noted
Compounds without any hit were thinned out: in the full panel of roughly 83,000, 20% have a hit. Activity calls are given as the source filed them. The calls were made as follows: active = growth percent below 10; inactive = the rest.
Let's look at some compounds and their measured growth.

Given Smiles | growth
Cc1cc(C)cc(S(=O)(=O)n2ccc(-c3ccc4c(c3)CCC(C)(C)O4)n2)c1 | 116% (inactive)
Oc1c(Cl)cc(Cl)c(Cl)c1Cc1c(O)c(Cl)cc(Cl)c1Cl | 21.5% (inactive)
Cc1onc(-c2ccccc2Cl)c1C(=O)N[C@@H]1C(=O)N2[C@@H]1SC(C)(C)[C@@H]2C(=O)O | 97.1% (inactive)
COc1ccc(-c2nnc3c4[nH]cnc4ncn23)c(OC)c1 | 25.8% (inactive)
Cc1[nH]cnc1/C=C1\SC(N2CCCCC2)=NC1=O | 105% (inactive)

###

System: SK-OV-3 ovarian
Measurement Description: NCI-60 one-dose screen, 48 h
Particulars: 10 µM unless noted
This is part of a sample that, as a whole, favours compounds with a hit. Of some 83,000 tested, about 20% had one in any assay. Active and inactive are the calls of the source. How the source made its calls: active means growth percent below 10; inactive means the rest.
Outcomes: t = active, f = inactive

Compound | Label Value
O=C(CNC(=O)c1cccc2ccccc12)Nc1ccccc1Oc1ccc(O)cc1 | f
Cn1cc(NC(=O)Nc2cc(C(=O)O)n(C)c2)cc1C(=O)O | f
Nc1ccccc1C#Cc1ccccc1C#Cc1ccc(OCCCCCCOc2ccc(C#Cc3ccccc3C#Cc3ccccc3N)cc2)cc1 | f
O=C1OC2(c3ccccc31)c1ccccc1-c1ccccc12 | f
c1ccc(-c2oc(-c3ccccc3)c3ccccc23)cc1 | f
N#Cc1c(NC(=O)c2ccco2)[n+]([O-])c2ccccc2[n+]1[O-] | f
CC1c2ccccc2-c2ccccc2N1C (stereo unspecified) | f
Cc1ccc(/C=C/C(=O)c2ccc(F)cc2)s1 | f
CCN(Cc1cccc(S(=O)(=O)[O-])c1)c1ccc(C(=C2C=CC(=[N+](CC)Cc3cccc(S(=O)(=O)O)c3)C=C2)c2ccccc2S(=O)(=O)O)cc1 | f
COc1ccc2c(c1)sc1nc(-c3ccc(N(C)C)cc3)cn12 | f
COC(=O)c1cc2c(/C=C3/NC(=S)NC3=O)coc2n1C | f
CC[C@@H](C)/C=C(C)/C=C/C(O)=C1\C(=O)N[C@@H](Cc2ccc(OC(=O)[C@@](OC)(c3ccccc3)C(F)(F)F)cc2)C1=O | f
COC(=O)CC1=C(c2ccc([N+](=O)[O-])cc2)CCC1=O | f
COC(=O)[C@H](Cc1cn(C)cn1)NC(=O)[C@H](Cc1ccccc1)NC(=O)Nc1cc(C(F)(F)F)cc(C(F)(F)F)c1 | t
CCSc1nc(-c2ccc(F)cc2)c(C#N)c(=O)[nH]1 | f
COc1cccc(N2CCN(c3cccc(C)n3)CC2)c1 | f
COc1cccc(/C=C2\Cc3ccccc3C2=O)c1 | f
O=C1C(=O)c2c(nc3ccc(Cl)cn23)-c2ccccc21 | t
COc1ccc2nc(NC(=O)CN3CCn4c(nnc4C(F)(F)F)C3)sc2c1 | f
Cc1ccc(-c2csc(N)n2)cc1 | f
Nc1ccc(N=Nc2ccccc2)cc1[N+](=O)[O-] | f

###

System: HS 578T breast
Measurement Description: NCI-60 one-dose screen, 48 h (100 = growth as untreated, 0 = no growth, -100 = all killed)
Particulars: 10 µM unless noted
About 83,000 compounds went through this panel and 20% of them were active in at least one assay; those are over-represented in the sample as a whole.
Let's look at some compounds and their measured growth.

Compound | Tgt | growth [%]
O=C1CNc2cc(Cl)ccc2N1 | HS 578T breast | 97.4
CCSCC1CC(O)(c2ccccc2)C(c2ccccc2)C(c2ccc(Cl)cc2)O1 (stereo unspecified) | HS 578T breast | -11
Cc1[nH]c(=O)[nH]c(=O)c1CCSSCCc1c(C)[nH]c(=O)[nH]c1=O | HS 578T breast | 142
Cc1cccc2nnc(-c3ccccc3)n12 | HS 578T breast | 146
O=C1C=CC(=O)N1c1ccccc1N1C(=O)C=CC1=O | HS 578T breast | 104
COc1ccc(OC)c2c1CCC1(C2)NC(=O)NC1=O (stereo unspecified) | HS 578T breast | 85.6

###

Test system: IGROV1 ovarian
Measurement Description: NCI-60 one-dose screen, 48 h (100 = growth as untreated, 0 = no growth, -100 = all killed)
Particulars: 10 µM unless noted
Compounds without any hit were thinned out: in the full panel of roughly 83,000, 20% have a hit.
Let's look at some compounds and their measured growth.
Endpoint: growth (%)

Compound | Result
O=C(C(=O)c1cc(Br)ccc1O)c1cc(Br)ccc1O | 32.3
CCCCCN1C(=O)CCC1=O | 110
Cc1ccc2nc(SCC(=O)Nc3ccc(-c4nc5ccccc5s4)c(Cl)c3)[nH]c2c1 | 100
CCOC(=O)Nc1cc(-c2ccc(C)c(NS(C)(=O)=O)c2)nn2c(C)nnc12 | -45.6
CCOC(=O)C1C(=O)NC(C(=O)OCC)(C(=O)OCC)C1CC (stereo unspecified) | 124
COCCCNS(=O)(=O)c1ncnc2nc[nH]c12 | 142

###

Tested on: EKVX NSCLC
Measurement Description: NCI-60 one-dose screen, 48 h (100 = growth as untreated, 0 = no growth, -100 = all killed)
Particulars: 10 µM unless noted
Experimental: Growth inhibition of the EKVX human Non-Small Cell Lung tumor cell line is measured as a screen for anti-cancer activity. Cells are grown in 96 well plates and exposed to the test compound for 48 hours. Compounds are tested at a single concentration, which is 10^-5 M for most compounds. The reported endpoint is percent growth (GI% or GIPRCNT), where numbers from 0 - 100% represent growth inhibition, and numbers from -100% - 0 represent cell death. […]
About 83,000 compounds went through this panel and 20% of them were active in at least one assay; those are over-represented in the sample as a whole.
Let's look at some molecules and their measured growth.

Molecule | Unit Of Measure | growth
Cc1ccc(OCC(=O)Nc2ccc(Oc3ccccc3)cc2)c([N+](=O)[O-])n1 | % | 89.5
O=C(O)C1C(c2ccccc2)c2ccccc2C(O)C1CO (stereo unspecified) | % | 119
O=C(/C=C/c1cccc(O)c1)c1cccc(-n2cc(-c3ccccc3)[nH]c2=O)c1 | % | 66.8
CC1CN(CC(O)c2ccc(Br)cc2)CCO1 (stereo unspecified) | % | 120
CCOC(=O)C1=CCC(n2cc(C)c(=O)[nH]c2=O)O1 (stereo unspecified) | % | 104
COc1ccc2c(c1)c(CC(=O)[Se]C)c(C)n2C(=O)c1ccc(Cl)cc1 | % | -26.7
